Procedure details: KB-8-5-11 Cancer Cell Toxicity qHTS against the NCATS CANVASS Library (AID 1347364); note: nearly all actives have a fitted effect of over 75% in size
Condition summary: KB-8-5-11 MDR cells viability, CellTiter-Glo, 72 h; series mostly up to 46.1 µM
Results filed as inconclusive are left out. Active and inactive are the calls of the source. Calls come from the whole dose curve; as a rule, active = well fitted cell-killing curve with a large enough effect; inconclusive = small, poorly fitted or top-dose-only effect; inactive = flat fitted curve, though single readings scatter.

Molecule | outcome
CC12C[C@]3(O)O[C@@H](O1)[C@]1(COC(=O)c4ccccc4)[C@@H]3CC21OC1OC(CO)C(O)C(O)C1O (stereo partly drawn) | inactive
O=Cc1ccc2n1C[C@@]1(C[C@H](O)[C@H](O)CO1)OC2 | inactive
OCc1ccc2ocnc2c1 | inactive

----------
Procedure details: qHTS for Inflammasome Signaling Inhibitors: IL-1-beta AlphaLISA screen against the NCATS CANVASS Library (AID 1347379);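 note: human THP-1 cells primed with LPS then triggered with ATP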
Condition summary: THP-1 LPS/ATP, IL-1B AlphaLISA secretion, 16 h; series mostly up to 57.5 µM
Results filed as inconclusive are left out. The source made the active and inactive calls. Calls come from the whole dose curve; as a rule, active = well fitted inhibition curve with a large enough effect; inconclusive = small, poorly fitted or top-dose-only effect; inactive = flat fitted curve, though single readings scatter. Numbered stars: 1 amine (or outer) side, 2 acyl side, 3 side chain; on linkers, the order of the positions; unused ones are H or OH. Square brackets hold non-standard residues; d marks the D form. Peptide text beside a SMILES is read from it. X1 = CCCCCCCCCC(=O)[C@H](C(=O)[*:2])[C@@H]1CNC(=O)[C@@H](N[*:1])CS1
Classes used: active, inactive

Compound | Answer label
C[C@@H](O)[C@H]1OC(=O)C=C2[C@]3(C)[C@H]4[C@H](OC(=O)[C@@]4(C)[C@@H](O)[C@H]4O[C@H]43)[C@H]3O[C@@]231 | active
C=C1C(=O)O[C@H]2[C@H]1CC/C(CO)=C\CC[C@@]1(C)O[C@@H]21 | active
CCCCCCCCCC(=O)[C@@H]1C(=O)N[C@@H](CC(C)C)C(=O)N[C@H](C)C(=O)N2CCC[C@H]2C(=O)N[C@@H](C(C)C)C(=O)N[C@H]2CS[C@H]1CNC2=O (cyclo(L[dA]PV[X1])) | inactive
CCC1=C2CCCN3C(=O)O[C@H]([C@H]1OC(C)=O)[C@H]23 | inactive
OCc1ccc2ocnc2c1 | inactive
CC(O)/C=C/C1(O)C(C)(C)CC(O)CC1(C)O (centres undefined) | inactive
C=C1C(=O)C[C@H]2C[C@@H]1[C@]2(C)CCC=C(C)C | inactive
COc1ccc(CCCc2cc(O)c(OC)c(O)c2)c(O)c1O | inactive
CC1C(=O)C23CCC1C[C@]21O[C@@H]2C(C)(C)C=CC(=O)[C@@]23COC1=O (some centres undefined) | inactive

----------
Tested on: SC27B
Procedure details: qHTS profiling for inhibitors of Plasmodium falciparum proliferation (AID 504749); note: nearly all actives have a fitted effect of over 60% in size
Condition summary: P. falciparum in erythrocytes, SYBR Green DNA, 72 h; series mostly up to 28.7 µM
Inconclusive results are not listed. Active and inactive are the calls of the source. Calls come from the whole dose curve; as a rule, active = well fitted inhibition curve with a large enough effect; inconclusive = small, poorly fitted or top-dose-only effect; inactive = flat fitted curve, though single readings scatter.
Classes used: active, inactive

Molecule | Answer label
CC(C)C[C@@H](NC(=O)[C@H](Cc1ccccc1)NC(=O)c1cnccn1)B(O)O | active
CC(=O)[C@H]1CC[C@H]2C3CC=C4C[C@@H](O)CC[C@]4(C)C3CC[C@]12C (some centres not stated) | inactive
O=C(CC1NCCC[C@H]1O)Cn1cnc2cc(Br)c(Cl)cc2c1=O (some centres not stated) | active
C/C=C1\C2C=C(C)CC1(N)c1ccc(=O)[nH]c1C2 (configuration not stated) | inactive
COC(=O)[C@@H]1[C@@H]2C[C@H]3c4[nH]c5ccccc5c4CCN3C[C@@H]2CC[C@@H]1O | inactive
CN1CCN(CCC=C2c3ccccc3Sc3ccc(S(=O)(=O)N(C)C)cc32)CC1 | active
C[C@@H](C(=O)O)c1ccc(-c2ccccc2)c(F)c1 | inactive

----------
Procedure details: qHTS for Inhibitors of Plasmodium falciparum (GB4) proliferation (AID 504315); note: nearly all actives have a fitted effect of over 50% in size
Condition summary: P. falciparum GB4 in erythrocytes, SYBR Green DNA, 72 h; series mostly up to 6.7 µM
Records with an inconclusive call do not appear. The source made the active and inactive calls. The call rests on the fitted dose curve; in most records, active means well fitted inhibition curve with a large enough effect; inconclusive means small, poorly fitted or top-dose-only effect, or effect the other way; inactive means flat fitted curve, though single readings scatter.
Classes used: true (1) = active, false (0) = inactive

Compound | Answer label
C[C@H]1[C@H](O)[C@@H](N=[N+]=[N-])CCO[C@H]1c1ccccc1 | false (0)
CC12C=C(C=CCCc3ccco3)C(C)(C1)[C@H](CCc1ccco1)CC2=O (stereo partly drawn) | false (0)
COC(=O)[C@H]1O[C@@H](c2cc(OC)c(C)c(OC)c2O)[C@H](C)[C@@H](O)[C@@H]1C | false (0)
O=C1[C@H]2[C@@H]3[C@@H](O)[C@H](O)CC(=NOCc4ccccc4)[C@@H]3CC[C@H]2C(=O)N1C1CCCCC1 | false (0)
C=CCCCN1C=C(C(=O)OCC)C(c2ccccc2)NC1=O (stereo not drawn) | false (0)
CON(C)C(=O)c1nnc2c3ccccc3n(S(=O)(=O)c3ccc(C)cc3)c2n1 | false (0)
Cc1cc2c(c(=O)n1Cc1ccccc1)[C@H]1O[C@](CCCCN3C(=O)c4ccccc4C3=O)(Cc3c1ccc1ccccc31)O2 | true (1)
CCCCc1nc2c(c3c1C[C@H](C)OC3)CN(C(=O)c1cccnc1)CC2 | false (0)
CCc1cc2c(nc1CC)CCN(CCC(C)=NOC[C@@H](O)[C@H]1O[C@@H]3OC(C)(C)O[C@H]3[C@@H]1O)C2 | false (0)
C=CC1=C2C=C(C3CC3)N(CCCOC(C)C)C=C2C(=O)C(C)(OC(=O)c2ccco2)C1=O (stereo not drawn) | false (0)
CCCNC(=O)CC1OC(C2CCCCC2)Cc2ccccc21 (stereo not drawn) | false (0)
COc1ccc([C@]23Cc4cc(C#N)ccc4[C@H](O2)C2=C(CC4(CCCCC4)OC2=O)O3)cc1 | false (0)
CCOC(=O)C1=CN(CCc2cn(Cc3ccccc3)nn2)C(=O)NC1c1ccccc1 (stereo not drawn) | false (0)
COc1cc([C@@H](NC(=O)C(F)(F)F)C2CCCCC=C2c2ccccc2)cc(OC)c1OC (stereo partly drawn) | false (0)
COc1cccc([C@@H]2Oc3ccc(OC)cc3C(=O)[C@@H]2OC(=O)Nc2cc(OC)c(OC)c(OC)c2)c1 | false (0)
COC(=O)CCCC1=CC2=CC(=O)C(C)(OC(=O)c3cccs3)C(=O)C2=CN1c1ccc(OC)cc1 (stereo not drawn) | false (0)
CC(=O)OC[C@H]1O[C@H](CC=NOCC[C@@H]2C=C[C@@H](OC(C)=O)[C@@H](COC(C)=O)O2)C=C[C@@H]1OC(C)=O | false (0)
CCN1C(=S)NC(c2cccc(F)c2)C(C(=O)OC)=C1C (stereo not drawn) | false (0)

----------
System: Zika virus NS2B-NS3 protease (linked)
Procedure details: 384 well plate NINDS AMC confirmatory qHTS for Zika virus inhibitors (AID 1347163); note: nearly all actives have a fitted effect of over 50% in size
Condition summary: Recombinant NS2B-NS3 protease, Ac-VKTGKR-AMC fluorescence; series mostly up to 1 mM
Results filed as inconclusive are left out. Active and inactive are the calls of the source. The call rests on the fitted dose curve; in most records, active means well fitted inhibition curve with a large enough effect; inconclusive means small, poorly fitted or top-dose-only effect; inactive means no such curve, though single readings can be large or run the other way.
Classes used: active, inactive

Compound | Answer label
O=S(=O)(Nc1ccc(O)c(Sc2nc3ccccc3s2)c1)c1cc(Cl)ccc1Cl | active
O=C(OCc1cc(=O)n2nc(C3CC3)sc2n1)c1ccc(NC(=O)c2ccccc2Cl)cc1 | inactive
CC(=O)C(N=Nc1ccc(S(=O)(=O)Nc2ccccn2)cc1)C(=O)Nc1ccc(Cl)cc1 (stereo not drawn) | active

----------
System: TAB165
Procedure details: qHTS profiling for inhibitors of Plasmodium falciparum proliferation (AID 504749); note: nearly all actives have a fitted effect of over 60% in size
Condition summary: P. falciparum in erythrocytes, SYBR Green DNA, 72 h; series mostly up to 28.7 µM
Inconclusive results are not listed. The source made the active and inactive calls. The call rests on the fitted dose curve; in most records, active means well fitted inhibition curve with a large enough effect; inconclusive means small, poorly fitted or top-dose-only effect; inactive means flat fitted curve, though single readings scatter.
Classes used: active, inactive

Compound | Answer label
CN1CCN(CCC=C2c3ccccc3Sc3ccc(S(=O)(=O)N(C)C)cc32)CC1 | active
CC(=O)[C@H]1CC[C@H]2C3CC=C4C[C@@H](O)CC[C@]4(C)C3CC[C@]12C (stereo partly specified) | inactive
C[C@@H](C(=O)O)c1ccc(-c2ccccc2)c(F)c1 | inactive
C/C=C1\C2C=C(C)CC1(N)c1ccc(=O)[nH]c1C2 (stereo unspecified) | inactive
CC(C)C[C@@H](NC(=O)[C@H](Cc1ccccc1)NC(=O)c1cnccn1)B(O)O | active
CC(C)(O)c1ccccc1CC[C@H](SCC1(CC(=O)O)CC1)c1cccc(/C=C/c2ccc3ccc(Cl)cc3n2)c1 | inactive

----------
Procedure details: qHTS for Inhibitors of Plasmodium falciparum (7G8) proliferation (AID 504316); note: nearly all actives have a fitted effect of over 65% in size
Condition summary: P. falciparum 7G8 in erythrocytes, SYBR Green DNA, 72 h; series mostly up to 6.7 µM
Inconclusive results are not listed. The source made the active and inactive calls. The call rests on the fitted dose curve; in most records, active means well fitted inhibition curve with a large enough effect; inconclusive means small, poorly fitted or top-dose-only effect; inactive means flat fitted curve, though single readings scatter.
Classes used: t (active), f (inactive)

Molecule | Answer label
CCOC(=O)CN1C(=O)N(CC)C(C)=C(C(=O)OC)C1c1ccccc1 (stereo not drawn) | f
CC(C)CON=C1C[C@@H](O)[C@@H](O)[C@@H]2[C@H]3C(=O)N(c4ccc(F)cc4F)C(=O)[C@@H]3CC[C@H]12 | f
CC(C)CON=C1C[C@@H](O)[C@@H](O)[C@@H]2[C@H]3C(=O)N(Cc4ccc5c(c4)OCO5)C(=O)[C@@H]3CC[C@H]12 | f
CCc1cc2c(nc1CC)CCN(CCC(C)=NO[C@H](C)c1cn([C@H](CO)Cc3ccccc3)nn1)C2 | t
CC(C)=CCN1C(=O)[C@]2(O[C@H](C)CC3=CCCC32)c2c(Br)cccc21 (stereo partly drawn) | f
CCO[C@@H]1C[C@@]1(C=C[C@@H](C)[C@H](OC)c1ccccc1Br)C(=O)OC | f
C=CCCN1C=C(C(=O)OCC)C(c2ccccc2)NC1=O (stereo not drawn) | f
C=CCOC(=O)N[C@@H](c1ccccc1)[C@@H](C)[N+](=O)[O-] | f
C[C@@H]1CC2=CCCC2[C@]2(O1)C(=O)Nc1cccc(Br)c12 (stereo partly drawn) | f
CCCCC1=CC2=CC(=O)C(C)(OC(=O)c3cnc4ccccc4n3)C(=O)C2=CO1 (stereo not drawn) | f
C=CC[C@@H]1C=C[C@H](ON=C[C@@H](C)[C@H](OCc2ccccc2)C(C)C)[C@H](CO)O1 | f
COC(=O)C12CC3(CCC4C5C(C(OCc6ccccc6)C41)C52)OCCO3 (stereo not drawn) | f
C=CC[C@@H]1C=C[C@H](ON=C[C@@H](N[S+](=O)([O-])c2ccc(C)cc2)[C@H](C)C=CCC(=O)OC)[C@H](CO)O1 | f
COC(=O)N[C@@H](c1ccc(Br)cc1)C(C(=O)OC)C(=O)OC | f
CCCCc1nc2c(c3c1C[C@H](C)OC3)CN(C(=O)c1ccco1)CC2 | f
COc1ccc2c(c1)CO[C@H]([C@H](O)COC(C)=O)[C@H]2C=Cc1ccccc1 | f
CCCCC1=CC2=C(c3ccco3)C(=O)C(C)(OC(=O)c3ccc(OC)cc3)C(=O)C2=CN1Cc1ccccc1 (stereo not drawn) | f
CO[C@@H]1c2cc(F)ccc2C(=CCCOC(=O)CC=Cc2ccccc2)[C@H]1C | f
